test system: LOX IMVI; experiment: NCI tumour cell line growth inhibition, 48 h
Calls of active or inactive are those of the source. Rule as the data show it: active = GI50 up to about 1.1 µM and inactive = higher.
Write down the outcome that applies. Available outcomes: active, inactive

Use these answered entries as a reference point.
>  <COMPOUND>
O=C1c2c(ccc3c2CCCC3)CC12Cc1ccc3c(c1C2=O)CCCC3

>  <TESTED ON>
LOX IMVI

>  <LABEL CLASS>
inactive

$$$$
>  <COMPOUND>
O=C1NC(=O)[C@@]2(CC[C@@H](O)C2)c2ccncc21 [SESBANINE]

>  <TESTED ON>
LOX IMVI

>  <LABEL CLASS>
inactive

$$$$

Qu. For Nc1nc(N)c2nc(CNc3ccc(C(=O)NC(CCNC(=O)c4ccccc4C(=O)O)C(=O)O)cc3)cnc2n1 (stereo not given) , which call appears in the assay record?
Ans. active

Qu. For C/C(=C\c1ccccc1)C(O)S(=O)(=O)O (stereo not given) , which call appears in the assay record?
Ans. inactive

Qu. For "Cc1cc(N(CCC#N)S(=O)(=O)c2ccccc2)ccc1/C=N/c1ccc(C(=O)O)cc1" , which call appears in the assay record?
Ans. inactive

###

test system: HCT-116; test: NCI tumour cell line growth inhibition, 48 h
Calls of active or inactive are those of the source. No stated cut-off is given here; in the data, active = GI50 up to about 1.1 µM and inactive = higher. Residues, ends and D or L forms follow the SMILES beside them. *: point of attachment. X38 = O=C(c1ccc(-c2ccc(Cl)cc2Cl)o1)*
Write down the outcome that applies. Available outcomes: active, inactive

>  <COMPOUND>
COC(=O)C(CC(C)C)NC(=O)C(Cc1ccccc1)NC(=O)C1CCCN1C(=O)C(CO)NC(=O)c1ccc(-c2ccc(Cl)cc2Cl)o1 (stereo not given) (X38-SPFL-OMe; configuration not given here)

>  <LABEL CLASS>
inactive

$$$$
>  <COMPOUND>
CN(C)Cc1cc(/N=N/c2ccccc2)cc(CN(C)C)c1O

>  <LABEL CLASS>
inactive

$$$$
>  <COMPOUND>
COC(=O)c1c(C)cccc1/C=C1/Cc2c(C)cccc2C1=O

>  <LABEL CLASS>
inactive

$$$$
>  <COMPOUND>
O=c1c2nn3c(=O)n(-c4ccccc4)c(=O)c3nn2c(=O)n1-c1ccccc1

>  <LABEL CLASS>
inactive

$$$$
>  <COMPOUND>
OC[C@H]1O[C@@H](n2cnc3cncnc32)[C@H](O)[C@@H]1O [NEBULARINE]

>  <LABEL CLASS>
active

$$$$
>  <COMPOUND>
C=C(CC)C[C@@H]1C[C@]2(C(=O)OC)c3[nH]c4ccccc4c3CCN2C1=O

>  <LABEL CLASS>
inactive

$$$$
>  <COMPOUND>
CCOC(=O)Cc1ccc2c(c1O)C(=O)c1c(ccc(CC(=O)OCC)c1O)C2=O

>  <LABEL CLASS>
inactive

$$$$
>  <COMPOUND>
CCCCNC(=O)CCN(C(=O)O)S(=O)(=O)c1ccc(NC(=O)c2ccccc2)cc1

>  <LABEL CLASS>
inactive

$$$$

Qu. For "O=C(C/N=C(\CN(c1ccccc1)c1ccccc1)Oc1c(Cl)cc(Cl)cc1Cl)N1c2ccccc2Sc2ccccc21" , which call appears in the assay record?
Ans. inactive

Qu. For CCCCCC(C[N+]1(C)CCOCC1)C(=O)/C=C/c1ccccc1 (stereo not given) , which call appears in the assay record?
Ans. inactive

###

tested on: NCI-H23; assay: NCI tumour cell line growth inhibition, 48 h
Calls of active or inactive are those of the source. Rule as the data show it: active = GI50 up to about 1.1 µM and inactive = higher.
Write down the outcome that applies. Available outcomes: label 1 = active, label 0 = inactive

Use these answered entries as a reference point.
>  <MOLECULE>
S=C1Cc2c(-c3ccc(Cl)cc3)cc(-c3ccccc3)nc2-c2ccccc2N1

>  <LABEL CLASS>
label 0

$$$$
>  <MOLECULE>
C/C(=C\c1ccccc1)C(O)S(=O)(=O)O (stereo not given)

>  <LABEL CLASS>
label 0

$$$$
>  <MOLECULE>
O=C1OC2C(O)C(=O)OC2C1O (stereo not given)

>  <LABEL CLASS>
label 0

$$$$
>  <MOLECULE>
CSc1c(CC(=O)O)n(Cc2ccccc2)c2ccccc12

>  <LABEL CLASS>
label 0

$$$$
>  <MOLECULE>
CCOC(=O)/C(C#N)=C/c1ccc2c(-c3c(OCC)ccc4cc(/C=C(\C#N)C(=O)OCC)ccc34)c(OCC)ccc2c1

>  <LABEL CLASS>
label 0

$$$$

Kindly consider the entry below.
Qu. For CC1=C(N2CC2)C(=O)c2nc3n(c2C1=O)CCC3OC(=O)CCl (stereo not given) , which call appears in the assay record?
Ans. label 1

###

Assignment: determine reported GI50 for the given molecules.
system: T47D; assay: NCI tumour cell line growth inhibition, 48 h
Calls of active or inactive are those of the source. Rule as the data show it: active = GI50 up to about 1.1 µM and inactive = higher.

Before answering, review these 7 worked examples.
>  <MOLECULE>
C#CC[C@@H]1C(=O)N(Cc2ccc(OC)cc2)[C@@H](C(C)C)C(=O)N1Cc1ccc(OC)cc1

>  <GI50>
16.4 µM (inactive)

$$$$
>  <MOLECULE>
C=C1C(=O)O[C@H]2C1C[C@@H](OC(C)=O)/C(C)=C/CC[C@@]1(C)O[C@H]21 (stereo partly drawn)

>  <GI50>
7.1 µM (inactive)

$$$$
>  <MOLECULE>
COc1cc2c3c(c1OC)C(=O)C(=O)C1=C3N(CCC1)CC2

>  <GI50>
23.2 µM (inactive)

$$$$
>  <MOLECULE>
CC(C)C(C/C=C1\CC(CO)(COC(=O)C(C)(C)C)OC1=O)C(C)C (stereo not drawn)

>  <GI50>
15.1 µM (inactive)

$$$$
>  <MOLECULE>
C=CC1(C)CCC2C(=CCC3C(C)(COC4OC(C(=O)O)C(O)C(O)C4O)C(O)CCC23C)C1.C=CC1(C)CCC2C(=CCC3C2(C)CC(O)C(O)C3(C)COC2OC(C(=O)O)C(O)C(O)C2O)C1 (stereo not drawn)

>  <GI50>
> 100 µM (inactive)

$$$$
>  <MOLECULE>
O=C(N/N=C\c1ccc([N+](=O)[O-])cc1)Nc1ccc2ccccc2c1

>  <GI50>
56.1 µM (inactive)

$$$$
>  <MOLECULE>
CCN(CCCl)c1cc(CN(C)C)cc(NC(=O)C23CCC(C(=O)Nc4cc(CN(C)C)cc(N(CC)CCCl)c4)(CC2)CC3)c1

>  <GI50>
3.03 µM (inactive)

$$$$

Please find the next molecule below.
Qu. Query the reported GI50 for T47D; item: "COC(=O)[C@@H]1C[C@@]23CCCN4CC[C@@]5(c6cccc(OC)c6N(C=O)[C@]15CC2)[C@@H]43"
Ans. > 100 µM (inactive)

###

system: KM12; test: NCI tumour cell line growth inhibition, 48 h
The source made the active and inactive calls. No stated cut-off is given here; in the data, active = GI50 up to about 1.1 µM and inactive = higher. Residues, ends and D or L forms follow the SMILES beside them. *: point of attachment. X38 = O=C(c1ccc(-c2ccc(Cl)cc2Cl)o1)*
Write down the outcome that applies. Available outcomes: active, inactive

>  <COMPOUND>
O=C1/C(=C\c2ccc(O)cc2)CCC/C1=C/c1ccc(Cl)c(Cl)c1

>  <TESTED ON>
KM12

>  <LABEL CLASS>
inactive

$$$$
>  <COMPOUND>
COC(=O)C(CC(C)C)NC(=O)C(Cc1ccccc1)NC(=O)C1CCCN1C(=O)C(CO)NC(=O)c1ccc(-c2ccc(Cl)cc2Cl)o1 (stereo not drawn) (X38-SPFL-OMe; configuration not given here)

>  <TESTED ON>
KM12

>  <LABEL CLASS>
inactive

$$$$
>  <COMPOUND>
COC(=O)C1C(O)C(C)C(=O)C(C)/C=C\C=C(C)C(=O)Nc2c(C)c(OC(C)=O)c3c(c2O)C(=O)C(C)=C2OCOC(=C23)C(C)=CC(C)(O)C(O)C(C)C1O (stereo not drawn)

>  <TESTED ON>
KM12

>  <LABEL CLASS>
inactive

$$$$
>  <COMPOUND>
CNC(=O)Nc1nc2cc([N+](=O)[O-])ccc2[nH]1

>  <TESTED ON>
KM12

>  <LABEL CLASS>
inactive

$$$$
>  <COMPOUND>
O=C(/C=N/c1ccccc1S)c1ccco1

>  <TESTED ON>
KM12

>  <LABEL CLASS>
inactive

$$$$
>  <COMPOUND>
C=CCOC(=O)C[C@H](NC(=O)[C@H](Cc1ccc(O)cc1)NCC(F)(F)F)C(=O)OCC=C

>  <TESTED ON>
KM12

>  <LABEL CLASS>
inactive

$$$$
>  <COMPOUND>
CN(C)CCCc1c2ccccc2nc2ccc(Cl)cc12

>  <TESTED ON>
KM12

>  <LABEL CLASS>
inactive

$$$$
>  <COMPOUND>
CN1C(OCc2ccccc2)c2c(ccc3c2OCO3)C2C=Cc3cc4c(cc3C21)OCO4 (stereo not drawn)

>  <TESTED ON>
KM12

>  <LABEL CLASS>
active

$$$$
>  <COMPOUND>
CCOC(=O)C1=C(NC)OC/C1=N\NC(=O)c1ccccc1O

>  <TESTED ON>
KM12

>  <LABEL CLASS>
inactive

$$$$
>  <COMPOUND>
COc1ccccc1NC(=O)CC(=O)N1N=C(C)C(/N=N/c2ccc(S(N)(=O)=O)cc2)C1=O (stereo not drawn)

>  <TESTED ON>
KM12

>  <LABEL CLASS>
inactive

$$$$

Qu. For "CC(=O)c1csc2c1C(=O)c1ccccc1C2=O" , which call appears in the assay record?
Ans. inactive

Qu. For "COc1c(CC(C)=O)ccc2c1C(=O)c1ccc(C=O)c(OC(C)=O)c1C2=O" , which call appears in the assay record?
Ans. inactive

Qu. For "Cc1cccc2c(N)c3cccc(C(=O)NCC[N+](C)(C)Cc4c([N+](=O)[O-])ncn4C)c3nc12" , which call appears in the assay record?
Ans. inactive

Cited source for all entries: ChEMBL document CHEMBL1201862
